I'd be grateful if you could share measured t1/2 Plasma (terminal half-life) for these entries.
Assay: Pharmacokinetic studies in plasma and brain of mice after i.p. injection
Assay type: in vivo, mouse
Details: male mice, i.p. 5 mg/kg
Numbers only, in min.

molecule: N[C@@]1(c2ccccc2Cl)CC[C@H](O)CC1=O
units text: min
t1/2 Plasma (terminal half-life): 28
//
molecule: N[C@@]1(c2ccccc2Cl)CCC[C@@H](O)C1=O [(2R,6R)-HNK, (2R,6R)-hydroxynorketamine]
units text: min
t1/2 Plasma (terminal half-life): 38
//
molecule: N[C@@]1(c2ccccc2Cl)CCC[C@H](O)C1=O
units text: min
t1/2 Plasma (terminal half-life): 55

**Q:** // t1/2 Plasma (terminal half-life) lookup, key: `N[C@]1(c2ccccc2Cl)C[C@H](O)CCC1=O`
**A:** 48

====

Assay: Pharmacokinetic studies in plasma and brain of mice after i.p. injection
Assay type: in vivo, mouse
Conditions: male mice, i.p. 5 mg/kg
measurement type: t1/2 Plasma (terminal half-life) (min)
Numbers only, in min.

Worked examples, 4 compounds total:
compound: N[C@]1(c2ccccc2Cl)CC[C@H](O)CC1=O
measurement type: t1/2 Plasma (terminal half-life)
units text: min
recorded number: 27

compound: N[C@]1(c2ccccc2Cl)CCC[C@H](O)C1=O [(2S,6S)-HNK, (2S,6S)-hydroxynorketamine]
measurement type: t1/2 Plasma (terminal half-life)
units text: min
recorded number: 44

compound: N[C@@]1(c2ccccc2Cl)C[C@@H](O)CCC1=O
measurement type: t1/2 Plasma (terminal half-life)
units text: min
recorded number: 39

compound: C[C@@H]1CC[C@@](N)(c2ccccc2Cl)C(=O)[C@@H]1O [(5R)-methyl-(2R,6R)-HNK, (5R)-methyl-(2R,6R)-hydroxynorketamine]
measurement type: t1/2 Plasma (terminal half-life)
units text: min
recorded number: 49

Can you give me t1/2 Plasma (terminal half-life) for all of these, one by one?
1. N[C@]1(c2ccccc2Cl)CCC[C@@H](O)C1=O
2. N[C@@]1(c2ccccc2Cl)CC[C@@H](O)CC1=O
3. N[C@@]1(c2ccccc2Cl)C[C@H](O)CCC1=O

**A:**
45
30
35

Give t1/2 Plasma (terminal half-life) for all compounds that follow.
1. N[C@]1(c2ccccc2Cl)C[C@@H](O)CCC1=O
2. N[C@]1(c2ccccc2Cl)CC[C@@H](O)CC1=O

**A:**
[39, 37]

====

Assay: Pharmacokinetic studies in plasma and brain of mice after i.p. injection
Type: in vivo, mouse
Settings: female mice, i.p. 5 mg/kg
Flag rule - B:P ratio (brain to plasma AUC ratio) less than 1 flags satisfied; the remaining entries get not satisfied.

Solved cases below.
molecule: C[C@@H]1CC[C@@](N)(c2ccccc2Cl)C(=O)[C@@H]1O [(5R)-methyl-(2R,6R)-HNK, (5R)-methyl-(2R,6R)-hydroxynorketamine]
category: satisfied
--
molecule: N[C@@]1(c2ccccc2Cl)CCC[C@@H](O)C1=O [(2R,6R)-HNK, (2R,6R)-hydroxynorketamine]
category: not satisfied
--
molecule: N[C@]1(c2ccccc2Cl)CC[C@H](O)CC1=O
category: not satisfied
--
molecule: N[C@]1(c2ccccc2Cl)CCC[C@H](O)C1=O [(2S,6S)-HNK, (2S,6S)-hydroxynorketamine]
category: not satisfied
--
molecule: N[C@@]1(c2ccccc2Cl)C[C@H](O)CCC1=O
category: not satisfied
--
molecule: N[C@]1(c2ccccc2Cl)CCC[C@@H](O)C1=O
category: not satisfied
--
molecule: N[C@@]1(c2ccccc2Cl)CCC[C@H](O)C1=O
category: satisfied
--
molecule: N[C@@]1(c2ccccc2Cl)CC[C@@H](O)CC1=O
category: not satisfied

Read the next record carefully.
**Q:** Regarding `N[C@]1(c2ccccc2Cl)C[C@@H](O)CCC1=O` , kindly confirm whether its B:P ratio (brain to plasma AUC ratio) is beneath 1.
**A:** satisfied

====

Test system: male mice
Experiment: Forced swim test immobility time 24 h after i.p. treatment
Assay type: in vivo, mouse
Conditions: 24 h after injection
measurement type: Minimal effective dose to reduce immobility time in the forced swim test
Respond with the figure and its unit, in that order.

compound: N[C@]1(c2ccccc2Cl)CCC[C@H](O)C1=O [(2S,6S)-HNK, (2S,6S)-hydroxynorketamine]
study target: male mice
result: 30 mg/kg
--
compound: C[C@@H]1CC[C@@](N)(c2ccccc2Cl)C(=O)[C@@H]1O [(5R)-methyl-(2R,6R)-HNK, (5R)-methyl-(2R,6R)-hydroxynorketamine]
study target: male mice
result: 1 mg/kg
--
compound: N[C@@]1(c2ccccc2Cl)CCC[C@H](O)C1=O
study target: male mice
result: 1 mg/kg
--
compound: N[C@@]1(c2ccccc2Cl)CCC[C@@H](O)C1=O [(2R,6R)-HNK, (2R,6R)-hydroxynorketamine]
study target: male mice
result: 10 mg/kg

**Q:** What measured Minimal effective dose to reduce immobility time in the forced swim test goes with `N[C@]1(c2ccccc2Cl)CCC[C@@H](O)C1=O` ?
**A:** 3 mg/kg

====

Give B:P ratio (brain to plasma AUC ratio) for every item shown.
Assay: Pharmacokinetic studies in plasma and brain of mice after i.p. injection
Format: in vivo, mouse
Conditions: male mice, i.p. 5 mg/kg
Numbers only.

For each of the molecules below, state B:P ratio (brain to plasma AUC ratio).
1. N[C@]1(c2ccccc2Cl)C[C@@H](O)CCC1=O
2. C[C@@H]1CC[C@@](N)(c2ccccc2Cl)C(=O)[C@@H]1O [(5R)-methyl-(2R,6R)-HNK, (5R)-methyl-(2R,6R)-hydroxynorketamine]
3. N[C@@]1(c2ccccc2Cl)C[C@H](O)CCC1=O
4. N[C@]1(c2ccccc2Cl)CCC[C@@H](O)C1=O
5. N[C@]1(c2ccccc2Cl)CCC[C@H](O)C1=O [(2S,6S)-HNK, (2S,6S)-hydroxynorketamine]
6. N[C@@]1(c2ccccc2Cl)CC[C@@H](O)CC1=O
7. N[C@]1(c2ccccc2Cl)CC[C@H](O)CC1=O
8. N[C@]1(c2ccccc2Cl)CC[C@@H](O)CC1=O

**A:**
1. 0.7
2. 0.4
3. 1.3
4. 1.2
5. 1.0
6. 1.2
7. 1.2
8. 0.7

**Q:** Recorded B:P ratio (brain to plasma AUC ratio) for `N[C@@]1(c2ccccc2Cl)C[C@@H](O)CCC1=O` , please?
**A:** 1.1

====

Assay: Pharmacokinetic studies in plasma and brain of mice after i.p. injection
Type: in vivo, mouse
Conditions: male CD-1 mice, i.p. 5 mg/kg, normalized to free base dose
Parameter threshold = 200 ng/g•mg/kg. Response is T when Cmax (mean ± SEM) Brain meets or exceeds it, else F.

Please review the following examples before continuing.
compound: N[C@@]1(c2ccccc2Cl)CC[C@H](O)CC1=O
category: F
--
compound: N[C@]1(c2ccccc2Cl)C[C@H](O)CCC1=O
category: F
--
compound: N[C@@]1(c2ccccc2Cl)C[C@@H](O)CCC1=O
category: T
--
compound: N[C@@]1(c2ccccc2Cl)CCC[C@H](O)C1=O
category: F

**Q:** Can `N[C@]1(c2ccccc2Cl)CC[C@H](O)CC1=O` be said to have Cmax (mean ± SEM) Brain at or above 200 ng/g•mg/kg?
**A:** F

**Q:** Try the compound `N[C@@]1(c2ccccc2Cl)C[C@H](O)CCC1=O`
**A:** T

**Q:** Request: N[C@@]1(c2ccccc2Cl)CCC[C@@H](O)C1=O [(2R,6R)-HNK, (2R,6R)-hydroxynorketamine]
**A:** T

====

Assay: Pharmacokinetic studies in plasma and brain of mice after i.p. injection
Assay type: in vivo, mouse
Settings: male mice, i.p. 5 mg/kg
Hi there, I'd appreciate the recorded t1/2 Brain (terminal half-life) for every entry that follows.
Answers are plain numbers, in min.

compound: N[C@@]1(c2ccccc2Cl)C[C@H](O)CCC1=O [(2R,4R)-HNK]
measurement type: t1/2 Brain (terminal half-life)
recorded number: 38

// for each compound in input: emit t1/2 Brain (terminal half-life)
1. N[C@@]1(c2ccccc2Cl)CC[C@@H](O)CC1=O [(2R,5R)-HNK]
2. N[C@]1(c2ccccc2Cl)C[C@H](O)CCC1=O [(2S,4R)-HNK]
3. N[C@@]1(c2ccccc2Cl)CCC[C@@H](O)C1=O [(2R,6R)-HNK, (2R,6R)-hydroxynorketamine]
4. N[C@]1(c2ccccc2Cl)CCC[C@H](O)C1=O [(2S,6S)-HNK, (2S,6S)-hydroxynorketamine]

**A:**
27
23
34
41

====

Experiment: Pharmacokinetic studies in plasma and brain of mice after i.p. injection
Assay type: in vivo, mouse
Details: female mice, i.p. 5 mg/kg
measurement type: B:P ratio (brain to plasma AUC ratio)

input smiles: N[C@]1(c2ccccc2Cl)C[C@H](O)CCC1=O
measurement type: B:P ratio (brain to plasma AUC ratio)
result: 1.0

input smiles: N[C@]1(c2ccccc2Cl)CC[C@@H](O)CC1=O
measurement type: B:P ratio (brain to plasma AUC ratio)
result: 1.0

input smiles: N[C@@]1(c2ccccc2Cl)CC[C@H](O)CC1=O
measurement type: B:P ratio (brain to plasma AUC ratio)
result: 1.0

**Q:** Consider the molecule shown here: `N[C@@]1(c2ccccc2Cl)C[C@@H](O)CCC1=O` What is its recorded B:P ratio (brain to plasma AUC ratio)?
**A:** 1.0
